ASSAY OVERVIEW: oral bioavailability in humans
EXPERIMENTAL CONDITIONS: human, in vivo, 45% coefficient of variation
ASSAY ENDPOINT: bioavailability (%)
Answer with a number only, understood to be in %.

## Input Sample COC(=O)O[C@@]12CO[C@@H]1C[C@H](O)[C@@]1(C)C(=O)[C@H](OC(C)=O)C3=C(C)[C@@H](OC(=O)[C@H](O)[C@@H](NC(=O)OC(C)(C)C)C(C)(C)C)C[C@@](O)([C@@H](OC(=O)c4ccccc4)[C@H]21)C3(C)C [Compound I] — what was its bioavailability?
## Output 24
